conditions: 308.2 K; 101.33 kPa; Liquid; Vibrating tube method
Numbers after ± are expanded uncertainties.

compound	mass density
CCCCn1cc[n+](C)c1.COS(=O)(=O)[O-] [1-butyl-3-methylimidazolium methyl sulfate]	1199.3 ± 1.4 kg/m3
CCCCn1cc[n+](C)c1.F[P-](F)(F)(F)(F)F [1-butyl-3-methylimidazolium hexafluorophosphate]	1356.2 ± 0.9 kg/m3
CCCCn1cc[n+](C)c1.O=S(=O)([O-])C(F)(F)F [1-butyl-3-methylimidazolium trifluoromethanesulfonate]	1296.2 ± 1.5 kg/m3
CCCCn1cc[n+](C)c1.F[B-](F)(F)F [1-butyl-3-methylimidazolium tetrafluoroborate]	1194.2 ± 0.9 kg/m3

----------
The entries below come with measured refractive index values attached.
assay: refractive index (Na D-line) (dimensionless); conditions: 304.2 K; 101.33 kPa; Liquid; Standard Abbe refractometry

compound	refractive index
CCCCn1cc[n+](C)c1.F[B-](F)(F)F [1-butyl-3-methylimidazolium tetrafluoroborate]	1.4204
CCCCn1cc[n+](C)c1.COS(=O)(=O)[O-] [1-butyl-3-methylimidazolium methyl sulfate]	1.4776
CCCCn1cc[n+](C)c1.O=S(=O)([O-])C(F)(F)F [1-butyl-3-methylimidazolium trifluoromethanesulfonate]	1.4355
CCCCn1cc[n+](C)c1.F[P-](F)(F)(F)(F)F [1-butyl-3-methylimidazolium hexafluorophosphate]	1.4083

----------
Form field: mass density (one value per entry).
conditions: 343.2 K; 101.33 kPa; Liquid; Vibrating tube method
measured_endpoint: mass density (kg/m3)

compound	unit_spec	reported_measurement
CCCCn1cc[n+](C)c1.F[P-](F)(F)(F)(F)F [1-butyl-3-methylimidazolium hexafluorophosphate]	kg/m3	1329
CCCCn1cc[n+](C)c1.F[B-](F)(F)F [1-butyl-3-methylimidazolium tetrafluoroborate]	kg/m3	1170.4
CCCCn1cc[n+](C)c1.O=S(=O)([O-])C(F)(F)F [1-butyl-3-methylimidazolium trifluoromethanesulfonate]	kg/m3	1269.5
CCCCn1cc[n+](C)c1.COS(=O)(=O)[O-] [1-butyl-3-methylimidazolium methyl sulfate]	kg/m3	1177

----------
experiment: refractive index (Na D-line) (dimensionless); conditions: 305.2 K; 101.33 kPa; Liquid; Standard Abbe refractometry
The following molecules are listed with their measured refractive index values.
measured_endpoint: refractive index

molecule	reported_measurement
CCCCn1cc[n+](C)c1.F[B-](F)(F)F [1-butyl-3-methylimidazolium tetrafluoroborate]	1.4201
CCCCn1cc[n+](C)c1.O=S(=O)([O-])C(F)(F)F [1-butyl-3-methylimidazolium trifluoromethanesulfonate]	1.4352
CCCCn1cc[n+](C)c1.COS(=O)(=O)[O-] [1-butyl-3-methylimidazolium methyl sulfate]	1.4774
CCCCn1cc[n+](C)c1.F[P-](F)(F)(F)(F)F [1-butyl-3-methylimidazolium hexafluorophosphate]	1.4081

----------
details: 301.2 K; 101.33 kPa; Liquid; Vibrating tube method
Recorded mass density values for a group of compounds are listed next.
measured_endpoint: mass density (kg/m3)

compound	measured_endpoint	reported_measurement
CCCCn1cc[n+](C)c1.O=S(=O)([O-])C(F)(F)F [1-butyl-3-methylimidazolium trifluoromethanesulfonate]	mass density	1301.5
CCCCn1cc[n+](C)c1.COS(=O)(=O)[O-] [1-butyl-3-methylimidazolium methyl sulfate]	mass density	1203.8
CCCCn1cc[n+](C)c1.F[P-](F)(F)(F)(F)F [1-butyl-3-methylimidazolium hexafluorophosphate]	mass density	1361.6
CCCCn1cc[n+](C)c1.F[B-](F)(F)F [1-butyl-3-methylimidazolium tetrafluoroborate]	mass density	1199

The reported measurements were obtained from the NIST ThermoML archive (doi:10.1016/j.jct.2008.08.010).
